molecular target: MMP 13 (Homo sapiens); assay: MMP 13 inhibition (HTS); assay type: biochemical; conditions: 36 nM
Task for the reader: assign each of the following compounds its reported MMP 13 % inhibition at 36 nM (HTS).
Numbers only, in %.

| compound | unit | measured_value |
| --- | --- | --- |
| CCCCCCC(C(=O)NO)S(=O)(=O)CC1NC(=O)NC1=O (stereo not shown) | % | −39 |
| CCCCCCC(C(=O)NO)S(=O)(=O)c1nccs1 (stereo not shown) | % | −9 |
| CCCCCCC(C(=O)NO)[S+]([O-])CC(=O)Nc1ccc2ccccc2c1 (stereo not shown) | % | −45 |
| CCCCCCC(SCCc1ccccn1)C(=O)NO (stereo not shown) | % | 18 |
| CCCCCCC(C(=O)NO)S(=O)(=O)c1cccc2cccnc12 (stereo not shown) | % | −18 |
| CCCCCCC(C(=O)NO)S(=O)(=O)c1ccc(OS(=O)(=O)c2ccccc2[N+](=O)[O-])cc1 (stereo not shown) | % | 22 |

Here is another compound to look at.
The recorded MMP 13 % inhibition at 36 nM (HTS) for entry CCCCCCC(SC1N=NN(c2ccccc2)N1)C(=O)NO (stereo not shown) equals 10
